ASSAY_TARGET: IgG1 (human, UniProt P01857-1 P01857-1:1-330)
Sequence (P01857 other isoform, or with tags, fused parts or gaps): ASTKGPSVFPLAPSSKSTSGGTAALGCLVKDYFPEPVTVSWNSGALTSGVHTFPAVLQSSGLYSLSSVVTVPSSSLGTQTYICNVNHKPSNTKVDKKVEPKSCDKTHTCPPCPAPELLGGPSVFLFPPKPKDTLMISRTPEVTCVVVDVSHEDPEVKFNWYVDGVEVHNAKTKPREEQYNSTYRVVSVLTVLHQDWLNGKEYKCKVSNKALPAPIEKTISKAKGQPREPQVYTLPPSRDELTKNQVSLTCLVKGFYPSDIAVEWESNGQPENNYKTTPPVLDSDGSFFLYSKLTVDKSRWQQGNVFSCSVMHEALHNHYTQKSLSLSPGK
TEST: SPR; solution A: 145 mM NaCl, 5.4 mM KCl, 1.8 mM CaCl2, 0.8 mM MgCl2, 20 mM Tris pH 7.6
TEST_CONTEXT: tags: Calbiochem; chain copies: 2; label: 3' A16 tail for immobilisation; GGUGCU bulge
Procedure: Used for the measurements was BIAcore 2000 manufactured by BIAcore. Used as the sensor chip was the SA chip having streptavidin immobilized thereon. Bound thereto was about 1000 RU of 16-residue Poly dT having biotin bound to the 5′ end thereof. […] The dissociation constant was determined by immobilizing an RNA having 16-residue PolyA added to the 3′ end thereof onto a sensor chip via an A-dT bond, injecting different concentrations of IgG (0.6 μM to 0.05 μM), and performing surface plasmon resonance.
MEASUREMENT_KIND: Kd (pM)
Enter your answer as a number in pM; do not include the unit.

Kd in this record for SEQ ID NO:1 (ssRNA, 2'-F at all pyrimidines) RNA: GGGACACAAUGGACGAGUUACAGGUGCUCCAUCAACAAAAUGUUACAUGGAACUGUAACGGCCGACAUGAGAG : 300

Ref: patent US20090170219
